- Test system: P. falciparum female gametocytes
- Test Description: P. falciparum Dual Gamete Formation Assay (PfDGFA), female readout (Pfs25-positive female gametes)
- Assay type: cell-based, Plasmodium falciparum NF54
- Settings: Plasmodium falciparum; PfDGFA, 24 h incubation with gametocytes before induction, female gamete readout; read-out: Female IC50
pIC50: −log10 of the molar value.
Measured Parameter: pIC50

a. C=CCNc1cc(-c2ccccn2)nc(-c2ccccn2)n1
b. O=c1c(Br)ccccc1Br
c. CN(C)CCCn1c(N)c(-c2nc3ccccc3[nH]2)c2nc(C#N)c(C#N)nc21
INPUT: Sort by pIC50 with smallest numbers at the start of the list. Returns: the labels listed in the requested order.
OUTPUT: a, c, b
